Biological target: human Aβ antigen (human)
Sequence (peptide, as listed by the source): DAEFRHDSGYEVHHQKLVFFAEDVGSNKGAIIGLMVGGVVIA
Test: cell-based or functional assay
Catalogue of relative fluorescence intensity (ThT, Aβ polymerization; hIgG = 1.00) values
Outcome Measure: relative fluorescence intensity (ThT, Aβ polymerization; hIgG = 1.00)

Binder	Measured Number
mouse-human chimeric antibody 066-4.26.14-chAb (antibody, human IgG1, kappa, V domains shown) VH: EVKLVESGGGLVKPGGSLKLSCAASGFTFRSYAMSWVRQTPEKRLEWVASISTTSNTYYPDSVKGRFTTSRDNARNIVYLQMSSLRSDDTAMYYCGRGVITNQAWFAYWGQGTLVTVSA VL: DIVLTQSPATLSVTPGDSVSLSCRASQSISNNLHWYQQKSHESPRLLIKYASQSISGIPSRFSGSGSGTDFTLSVNNVGTEDFGMYFCQQSNSWPLTFGAGTKLELKR	0.71
066-4.26.14H2L3 (antibody, V domains shown) VH: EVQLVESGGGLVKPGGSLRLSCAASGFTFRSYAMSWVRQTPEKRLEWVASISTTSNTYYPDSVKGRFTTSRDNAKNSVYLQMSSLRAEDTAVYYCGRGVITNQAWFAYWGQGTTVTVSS VL: DIVLTQSPDFQSVTPKEKVTISCRASQSISNNLHWYQQKPDQSPKLLIKYASQSISGIPSRFSGSGSGTDFTLTINSLEAEDAAAYFCQQSNSWPLTFGPGTKVEIK	0.67
